ASSAY INFO: Anticancer activity against human NCI60 cells assessed as cell growth at 10 uM after 48 hrs by SRB assay
Format: functional
TEST CONDITIONS: NCI60, 48 h, read-out: Activity
PARAMETER MEASURED: growth at 10 µM (%)
One number for each entry, in %.

In [3]: df
Out[3]:
                                   compound  quantitative_readout
0  O=C1CSC(N2N=C(c3ccccc3)CC2c2ccccc2O)=N1 (configuration not stated)                   101

Please look at the items below and tell me growth at 10 µM for each one, in order.
1. O=C1N=C(N2N=C(c3ccccc3)CC2c2ccccc2O)S/C1=C\c1ccccc1Cl (configuration not stated)
2. O=C1N=C(N2N=C(c3ccccc3)CC2c2ccccc2O)CS1 (configuration not stated)

[102, 83.6]

Please look at the items below and tell me growth at 10 µM for each one, in order.
1. O=C1N=C(N2N=C(c3ccccc3)CC2c2ccccc2O)S/C1=C\c1ccc(Cl)cc1 (configuration not stated)
2. O=C1N=C(N2N=C(c3ccccc3)CC2c2ccccc2O)S/C1=C\c1cccc(Br)c1 (configuration not stated)
3. COc1cc(/C=C2/SC(N3N=C(c4ccccc4)CC3c3ccccc3O)=NC2=O)cc(OC)c1O (configuration not stated)
4. O=C1N=C(N2N=C(c3ccccc3)CC2c2ccccc2O)/C(=C/c2ccc(O)cc2)S1 (configuration not stated)

[98.3, 88.6, 42.6, 1.13]
